biological target: PDK1 kinase (Homo sapiens, UniProt O15530); test: PDK1 Kinase Alpha Screen Assay; format: biochemical; details: PDK1 Kinase Alpha Screen Assay; read-out: PDK1 IC50
pIC50: −log10 of the molar value.
Quantity Measured: pIC50

Example compounds with recorded pIC50:
| Mol Smiles | Measured Result |
| --- | --- |
| c1cc(OC2CCNCC2)c2nc(Nc3ccc(N4CCOCC4)cc3)ncc2c1 | > 5.30 |
| O=C(c1ccc(Nc2ncc3cccc(OC4CCNCC4)c3n2)cc1F)N1CCCC1 | > 5.30 |

# context switch: different compound, same pIC50
Lookup: Dear colleague, I am looking for the recorded pIC50 of the following compound: "Cn1cc(-c2cc(Nc3ncc4cc(-c5nccs5)cc(OC5CCNCC5)c4n3)cc(C(N)=O)c2)cn1"
Found: > 5.30

* * *

Listed compounds paired with reported pIC50
Biological target: PDK1 kinase (Homo sapiens)
Sequence (O15530 1-556): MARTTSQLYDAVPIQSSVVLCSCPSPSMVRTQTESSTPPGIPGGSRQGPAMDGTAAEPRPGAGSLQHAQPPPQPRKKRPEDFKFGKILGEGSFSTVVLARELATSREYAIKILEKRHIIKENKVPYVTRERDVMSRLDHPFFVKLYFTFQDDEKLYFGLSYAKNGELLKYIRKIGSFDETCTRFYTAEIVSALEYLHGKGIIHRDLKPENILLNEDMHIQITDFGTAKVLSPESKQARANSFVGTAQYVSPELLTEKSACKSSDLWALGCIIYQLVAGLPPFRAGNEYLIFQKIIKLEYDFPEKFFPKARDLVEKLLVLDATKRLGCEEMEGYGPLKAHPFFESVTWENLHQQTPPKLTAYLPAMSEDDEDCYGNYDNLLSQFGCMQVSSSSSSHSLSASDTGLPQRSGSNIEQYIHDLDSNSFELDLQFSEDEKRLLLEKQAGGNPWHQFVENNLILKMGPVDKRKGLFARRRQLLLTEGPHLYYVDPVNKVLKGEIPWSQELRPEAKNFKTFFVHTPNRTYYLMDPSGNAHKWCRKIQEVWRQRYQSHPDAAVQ
Test: PDK1 Kinase Alpha Screen Assay
Type: biochemical
Details: PDK1 Kinase Alpha Screen Assay; read-out: PDK1 IC50
pIC50: −log10 of the molar value.

Example compounds with recorded pIC50:
| Compound | Tgt | pIC50 |
| --- | --- | --- |
| Cc1ccc(OC2CCNCC2)c2nc(Nc3ccc(S(=O)(=O)N4CCOCC4)cc3)ncc12 | PDK1 kinase (Homo sapiens) | > 5.30 |
| CC(C)NS(=O)(=O)c1ccc(Nc2ncc3ccc(OC4CCNCC4)cc3n2)cc1 | PDK1 kinase (Homo sapiens) | > 5.30 |

Lookup: Lab note: need pIC50 for FC(F)(F)c1ccc(OC2CCNCC2)c2nc(Nc3ccc(N4CCOCC4)cc3)ncc12 [Compound 385] on PDK1 kinase (Homo sapiens), anyone have it?
Found: > 5.30

* * *

Listed molecules paired with reported pIC50
target: PDK1 kinase (Homo sapiens); test: PDK1 Kinase Alpha Screen Assay; type: biochemical; conditions: read-out: PDK1 IC50
pIC50: −log10 of the molar value.

Example molecules with recorded pIC50:
| Mol Smiles | Tgt | pIC50 |
| --- | --- | --- |
| CC(C)N1CCC(Oc2cccc3cnc(Nc4ccc(CC(N)=O)cc4)nc23)CC1 | PDK1 kinase (Homo sapiens) | > 5.30 |
| COCCN1CCN(C(=O)c2ccc3cnc(Nc4ccc(S(N)(=O)=O)cc4)nc3c2)CC1 | PDK1 kinase (Homo sapiens) | 4.60 to 5.00 |
| NS(=O)(=O)c1ccc(Nc2ncc3ccc(-c4cccnc4)cc3n2)cc1 | PDK1 kinase (Homo sapiens) | > 5.30 |

Lookup: Dear colleague, I am looking for the recorded pIC50 of the following molecule: "CN(C)[C@H]1CCN(Cc2cccc3cnc(Nc4ccc(S(N)(=O)=O)cc4)nc23)C1"
Found: > 5.30

Lookup: Dear colleague, I am looking for the recorded pIC50 of the following molecule: "CNC(=O)Cc1ccc(Nc2ncc3cccc(OC4CCN(C(C)C)CC4)c3n2)cc1"
Found: > 5.30

Lookup: Dear colleague, I am looking for the recorded pIC50 of the following molecule: "C#Cc1cc(OC2CCN(C(C)C)CC2)c2nc(Nc3ccc(S(N)(=O)=O)cc3)ncc2c1"
Found: > 5.30

Lookup: Dear colleague, I am looking for the recorded pIC50 of the following molecule: "O=S(=O)(c1cccc(Nc2ncc3cccc(OC4CCNCC4)c3n2)c1)N1CCOCC1"
Found: > 5.30

Lookup: Dear colleague, I am looking for the recorded pIC50 of the following molecule: "Fc1ccc(Nc2ncc3cccc(-c4ccc(NCCN5CCCC5)nc4)c3n2)cc1"
Found: > 5.30

Lookup: Dear colleague, I am looking for the recorded pIC50 of the following molecule: "Nc1ccc(-c2ccc3cnc(Nc4ccc(S(N)(=O)=O)cc4)nc3c2OC2CCNCC2)cn1"
Found: > 5.30

Lookup: Dear colleague, I am looking for the recorded pIC50 of the following molecule: "CC(C)N1CCC(Oc2ccc3cnc(Nc4ccc(Cl)cc4)nc3c2)CC1"
Found: > 5.30

Lookup: Dear colleague, I am looking for the recorded pIC50 of the following molecule: "Nc1ncc(-c2ccc3cnc(Nc4ccc(S(N)(=O)=O)cc4)nc3c2OC2CCNCC2)cc1C(F)(F)F"
Found: > 5.30

Lookup: Dear colleague, I am looking for the recorded pIC50 of the following molecule: "NS(=O)(=O)c1ccc(Nc2ncc3cccc(C(=O)N[C@H]4CN5CCC4CC5)c3n2)cc1"
Found: 5.00 to 5.30
